Hi there, I'd appreciate the recorded morphology score for every entry that follows.
# Test system: A549-ACE2 infected with SARS-CoV-2
# protocol: morphology score (similarity to uninfected cells); higher = more like uninfected cells
# conditionDetails: 10 µM; 24 h
Give the figure only, with no unit attached.

Quick note, morphology score for "Cc1ccc(NC(=O)Nc2cc(C(F)(F)F)ccc2F)cc1Nc1ccc2c(c1)NC(=O)/C2=C\c1ccc[nH]1" landed at 0.82

Quick note, morphology score for "O=S(=O)(c1cccc2cnccc12)N1CCCNCC1" landed at 0.3

Quick note, morphology score for "O=C(NCCN1CCC2(CC1)C(=O)NCN2c1cccc(F)c1)c1ccc(F)c(F)c1" landed at 0.74

Quick note, morphology score for "COc1ccc2c(C)nc(Nc3nc(C)c(C)c(O)n3)nc2c1" landed at 0.21

Quick note, morphology score for "Nc1ncccc1-c1nc2ccc(-c3ccccc3)nc2n1-c1ccc(C2(N)CCC2)cc1" landed at 0.54

---

# Test system: HepG2
# protocol: cell viability relative to DMSO; higher = less toxic
# conditionDetails: 72 h; 10000 nM
measure: cell viability (%)
Please reply with the bare figure in % and do not write the unit itself.

Quick note, cell viability for CCCCNC(=O)NS(=O)(=O)c1ccc(C)cc1 [tolbutamide] landed at 99.9

Quick note, cell viability for "COc1ccc(CN(CCN(C)C)c2ncccn2)cc1" landed at 98.9

Quick note, cell viability for "O=C(O)CC[C@H]1CC[C@@](c2cc(F)ccc2F)(S(=O)(=O)c2ccc(Cl)cc2)CC1" landed at 108

Quick note, cell viability for "CCS(=O)(=O)Nc1ccc2c(c1)/C(=C(/Nc1ccc(CN3CCCCC3)cc1)c1ccccc1)C(=O)N2" landed at 5.1

Quick note, cell viability for C#C[C@]1(OC(C)=O)CC[C@H]2[C@@H]3CCC4=C[C@@H](OC(C)=O)CC[C@@H]4[C@H]3CC[C@@]21C [ethynodiol-diacetate] landed at 107

Quick note, cell viability for "O=C(/C=C/C=C/c1ccc2c(c1)OCO2)N1CCCCC1" landed at 95.9

Quick note, cell viability for CN/C(=N\c1ccc(C2=NNC(=O)CC2C)cc1)NC#N (stereo not given) landed at 105

Quick note, cell viability for "COc1ccc(CNCc2cccc3ccccc23)cc1" landed at 112

Quick note, cell viability for O=C(Nc1ccc(-c2ccnc(Nc3ccc(N4CCOCC4)cc3)n2)cc1)C1CCCN1 (stereo not given) landed at 67.5

Quick note, cell viability for "Cc1cccc(C)c1OCC(=O)N[C@@H](Cc1ccccc1)[C@@H](O)C[C@H](Cc1ccccc1)NC(=O)[C@H](C(C)C)N1CCCNC1=O" landed at 95.4

Quick note, cell viability for "CN([C@@H](Cc1ccc(OS(=O)(=O)c2cccc3cnccc23)cc1)C(=O)N1CCN(c2ccccc2)CC1)S(=O)(=O)c1cccc2cnccc12" landed at 95.7

Quick note, cell viability for "CN1[C@@H]2CC[C@H]1C[C@@H](OC(=O)[C@H](CO)c1ccccc1)C2" landed at 104

Quick note, cell viability for "CO[C@H]1CC[C@H](N(c2cc(C3=CCCCC3)sc2C(=O)O)C(=O)[C@H]2CC[C@H](C)CC2)CC1" landed at 114

Quick note, cell viability for C[C@@H]1NC(=O)[C@@H]2CCCN2C(=O)[C@H](CC(N)=O)NC(=O)[C@@H]2CSSC[C@H](N)C(=O)N[C@H]3CSSC[C@H](NC1=O)C(=O)N[C@@H]([C@@H](C)O)C(=O)NCC(=O)N[C@H](C(=O)N[C@@H](Cc1ccc(O)cc1)C(=O)O)CSSC[C@H](NC(=O)[C@H](Cc1ccc(O)cc1)NC(=O)[C@H](CCC(=O)O)NC3=O)C(=O)N2 [linaclotide] landed at 94.2

Quick note, cell viability for O=C(NCCCN1CCCCCC1)C(c1ccccc1)C1CCCCC1 (stereo not given) landed at 84.7

---

# Test system: Vero E6
# protocol: cell viability relative to DMSO; higher = less toxic
# conditionDetails: 72 h; 1 nM
Hi there, I'd appreciate the recorded cell viability for every entry that follows.
Please reply with the bare figure in % and do not write the unit itself.

Short answer on Vero E6 for O=C1NC(=S)NC(=O)C1C(=O)Nc1ccccc1 [merbarone] , cell viability: 100

Short answer on Vero E6 for O=C(O)CC[C@H]1CC[C@@](c2cc(F)ccc2F)(S(=O)(=O)c2ccc(Cl)cc2)CC1 [MK-0752] , cell viability: 96

Short answer on Vero E6 for NC(=O)[C@@H](CCC(F)(F)F)N(Cc1ccc(-c2ncon2)cc1F)S(=O)(=O)c1ccc(Cl)cc1 [avagacestat] , cell viability: 107

Short answer on Vero E6 for Nc1ncnc2c1c(-c1cccc(OCc3ccccc3)c1)cn2[C@H]1C[C@@H](CN2CCC2)C1 [NVP-AEW541] , cell viability: 100

Short answer on Vero E6 for NCCCCN [putrescine] , cell viability: 104

---

# Tested on: HepG2
# protocol: cell viability relative to DMSO; higher = less toxic
# conditionDetails: 72 h; 10000 nM
measure: cell viability (%)
Please reply with the bare figure in % and do not write the unit itself.

Quick note, cell viability for O=NO [sodium-nitrite] landed at 101

Quick note, cell viability for O=C(Oc1ccccc1)c1ccccc1O [phenyl-salicylate] landed at 106

Quick note, cell viability for "CO[C@H]1C[C@H](O[C@H]2[C@H](C)O[C@@H](O[C@@H]3/C(C)=C/C[C@@H]4C[C@@H](C[C@]5(C=C[C@H](C)[C@@H](C6CCCCC6)O5)O4)OC(=O)[C@@H]4C=C(C)[C@@H](O)[C@H]5OC/C(=C\C=C\[C@@H]3C)[C@]54O)C[C@@H]2OC)O[C@@H](C)[C@@H]1O" landed at 44.9

Quick note, cell viability for COC(=O)C1=C(C)NC(C)=C(C(=O)OCCN(C)Cc2ccccc2)C1c1cccc([N+](=O)[O-])c1 (stereo not drawn) landed at 95.4

Quick note, cell viability for "O=C(Nc1ccccc1)N[C@H]1C[C@H](C(=O)O)Nc2cc(Cl)cc(Cl)c21" landed at 104

Quick note, cell viability for "CCC(=O)NO" landed at 85.1

Quick note, cell viability for "Cc1ccc(S(=O)(=O)NCl)cc1" landed at 102

Quick note, cell viability for "COc1cccc(Nc2ncnn3ccc(CN4CC[C@@H](N)[C@H](O)C4)c23)c1" landed at 87.9

---

# Test system: Vero E6
# protocol: drug sensitivity score (DSS) for viability; higher = more toxic; extreme values may be limits of the assay
# conditionDetails: 72 h
Hi there, I'd appreciate the recorded drug sensitivity score for every entry that follows.
Give the figure only, with no unit attached.

Quick note, drug sensitivity score for COc1cc2nc(N3CCN(C(=O)C4CCCO4)CC3)nc(N)c2cc1OC (centres undefined) landed at 0

Quick note, drug sensitivity score for "Cn1cc(-c2ccc(S(=O)(=O)n3ccc(/C=C/C(=O)Nc4ccccc4N)c3)cc2)cn1" landed at 7.2

Quick note, drug sensitivity score for "NC(=O)[C@@H](CCC(F)(F)F)N(Cc1ccc(-c2ncon2)cc1F)S(=O)(=O)c1ccc(Cl)cc1" landed at 0

Quick note, drug sensitivity score for "O=C(NCCN1CCC2(CC1)C(=O)NCN2c1cccc(F)c1)c1ccc(F)c(F)c1" landed at 0

Quick note, drug sensitivity score for "Cc1c(C(=O)NCCCO)cnn1-c1nc(-c2cccc(C(F)(F)F)c2)cs1" landed at 0

Quick note, drug sensitivity score for "O=c1[nH]c(=O)n([C@H]2C[C@H](O)[C@@H](CO)O2)cc1C(F)(F)F" landed at 1.2

Quick note, drug sensitivity score for "N#C/C(=C\c1ccc(O)c(O)c1)C(=O)NCCCCc1ccccc1" landed at 2.5

Quick note, drug sensitivity score for "CCN(CC)CCOCCOC(=O)C1(c2ccccc2)CCCC1" landed at 0

Quick note, drug sensitivity score for "OCc1ccccc1O[C@@H]1O[C@H](CO)[C@@H](O)[C@H](O)[C@H]1O" landed at 0

Quick note, drug sensitivity score for Cc1ncc([N+](=O)[O-])n1CC(C)O (centres undefined) landed at 0

Quick note, drug sensitivity score for "O=NN(CCCl)C(=O)NC1CCCCC1" landed at 0

Quick note, drug sensitivity score for "CCCC(=O)Nc1cccc(NC(=O)c2ccccc2Br)c1" landed at 0

Quick note, drug sensitivity score for "Cc1cc(N2CCOCC2)ccc1Nc1nc(NC2CCCCC2)c2nc[nH]c2n1" landed at 7.4

Quick note, drug sensitivity score for "CC1=C(/C=C/C(=C/C=C/C(C)=C/C(=O)O)c2ccc(C)cc2)C(C)(C)CCC1" landed at 0

Quick note, drug sensitivity score for "CCCCCCCCCCCCCCCCOP(=O)([O-])OCC[N+](C)(C)C" landed at 0.6

Quick note, drug sensitivity score for "C[C@@H]1O[C@@H]1P(=O)(O)O" landed at 0

Quick note, drug sensitivity score for CC12CCC(C(=O)N(CCCCN3CCN(c4ccccn4)CC3)C1=O)C2(C)C (centres undefined) landed at 0

Quick note, drug sensitivity score for "C=CC(=O)Nc1ccc2ncnc(Nc3ccc(OCc4cccc(F)c4)c(Cl)c3)c2c1" landed at 11.3

Quick note, drug sensitivity score for C[C@@H](CN(C)C)CN1c2ccccc2Sc2ccccc21 (racemic) landed at 1.9
